Give measured relative cell viability for each item. Keep answers brief.
test system: HL-1; test: relative cell viability (CellTiter-Glo) vs DMSO control (% of DMSO control); higher = more viable cells; details: oxygen condition: normoxia 72 h; 40 nM

Example entries and their recorded answers appear below.
compound=CN(C)CC/C=C1/c2ccccc2Sc2ccc(Cl)cc21 assay_target=HL-1 value_reported=108
compound="C[N+](C)(C)CCCCCC[N+](C)(C)C [Hexamethonium bromide]" assay_target=HL-1 value_reported=94.2
compound=CC(C)C[C@H](NC(=O)[C@H](CCc1ccccc1)NC(=O)CN1CCOCC1)C(=O)N[C@@H](Cc1ccccc1)C(=O)N[C@@H](CC(C)C)C(=O)[C@@]1(C)CO1 assay_target=HL-1 value_reported=3.3

Then this compound:
Given the entry CCN(Cc1ccncc1)C(=O)C(CO)c1ccccc1 (centres undefined) [Tropicamide] , report its measured relative cell viability. 99.4
